Reference source: ChEMBL document CHEMBL1938289

measurement target: MAP kinase-activated protein kinase 2 (Homo sapiens, UniProt P49137)
Sequence (P49137 whole entry): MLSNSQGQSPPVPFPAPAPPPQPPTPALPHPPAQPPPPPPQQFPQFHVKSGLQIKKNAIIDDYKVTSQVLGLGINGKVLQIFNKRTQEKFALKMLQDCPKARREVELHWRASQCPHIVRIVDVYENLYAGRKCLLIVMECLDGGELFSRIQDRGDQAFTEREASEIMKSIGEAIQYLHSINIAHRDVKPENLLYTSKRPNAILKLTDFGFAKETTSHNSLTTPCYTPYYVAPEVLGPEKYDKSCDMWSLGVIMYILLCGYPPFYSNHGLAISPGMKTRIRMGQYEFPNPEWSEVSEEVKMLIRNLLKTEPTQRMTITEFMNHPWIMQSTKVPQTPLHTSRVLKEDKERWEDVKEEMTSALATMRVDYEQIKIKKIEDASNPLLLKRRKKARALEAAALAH
procedure summary: Inhibition of MK2-mediated HSP27 phosphorylation at Ser78 in LPS-stimulated human THP-1 cells pre-incubated for 60 mins before LPS treatment measured after 60 mins
Below, each entry is listed alongside its reported EC50.

{"molecule smiles": "Clc1ccc(-c2cc3c(o2)-c2nccn2-c2ccc(N4CCNCC4)cc2C3)cc1", "result units": "nM", "EC50": 1500}
{"molecule smiles": "N#Cc1ccc(-c2cc3c(o2)-c2nncn2-c2ccc(N4CCNCC4)cc2C3)cc1", "result units": "nM", "EC50": 260}
{"molecule smiles": "Clc1ccc(-c2cc3c(o2)-c2nncn2-c2ccc(N4CCNCC4)cc2C3)cc1", "result units": "nM", "EC50": 2100}
{"molecule smiles": "Cc1cnc2n1-c1ccc(N3CCNCC3)cc1Cc1cc(-c3ccc(Cl)cc3)oc1-2", "result units": "nM", "EC50": 2500}
{"molecule smiles": "N#Cc1ccc(-c2cc3c(o2)-c2nccn2-c2ccc(N4CCNCC4)cc2C3)cc1", "result units": "nM", "EC50": 260}
